Ref: patent US20240167070A1

# target: T1, matrix metalloprotease 2 (MMP2) (UniProt P08253 110-660, limits assumed)
# T1 sequence (looked up): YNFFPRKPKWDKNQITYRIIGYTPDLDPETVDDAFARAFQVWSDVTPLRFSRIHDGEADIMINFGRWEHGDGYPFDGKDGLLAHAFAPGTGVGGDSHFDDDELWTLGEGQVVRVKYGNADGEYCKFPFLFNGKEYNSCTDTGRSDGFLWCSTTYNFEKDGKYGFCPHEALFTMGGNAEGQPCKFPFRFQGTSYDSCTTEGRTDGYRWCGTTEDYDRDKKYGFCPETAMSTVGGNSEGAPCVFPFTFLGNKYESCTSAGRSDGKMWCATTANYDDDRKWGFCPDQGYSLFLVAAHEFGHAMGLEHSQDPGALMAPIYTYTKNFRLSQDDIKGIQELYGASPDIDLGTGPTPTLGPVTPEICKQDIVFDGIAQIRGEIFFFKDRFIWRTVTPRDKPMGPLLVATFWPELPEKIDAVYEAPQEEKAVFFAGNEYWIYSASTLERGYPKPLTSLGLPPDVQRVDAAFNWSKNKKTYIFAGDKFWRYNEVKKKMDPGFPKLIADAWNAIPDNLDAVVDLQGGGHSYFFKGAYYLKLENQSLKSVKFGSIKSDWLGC
# test-description: cell-based or functional assay
Starred links: 1 amine or outer side, 2 acyl side, 3 side chain; linkers in the order of their positions; H or OH if unused. Non-standard residues stand in square brackets, D forms with d. Primed or numbered codes have the meaning given here. No end group written: not given here. Asn(OH)″ = N^γ-hydroxy-L-asparagine (L-aspartic acid β-hydroxamate), O=C(C[C@H](N[*:1])C(=O)[*:2])NO; Asn(OH) = N-gamma-hydroxy-L-asparagine, O=C(C[C@H](N[*:1])C(=O)[*:2])NO[*:3]
reported-property: IC50 (µM)

[[record]]
binder = "ISYGN[Asn(OH)″]ALMP-NH2 (N-terminus assumed; SMILES CC[C@H](C)[C@H](N)C(=O)N[C@@H](CO)C(=O)N[C@@H](Cc1ccc(O)cc1)C(=O)NCC(=O)N[C@@H](CC(N)=O)C(=O)N[C@@H](CC(=O)NO)C(=O)N[C@@H](C)C(=O)N[C@@H](CC(C)C)C(=O)N[C@@H](CCSC)C(=O)N1CCC[C@H]1C(N)=O, Linear 10-mer; also called linear Asn(OH)-APP-IP peptide 9) [Asn(OH)-APP-IP peptide 9, ISYGNN(OH)ALMP]"
readout_number = 0.035

[[record]]
binder = "cyclo(ISYGQ[Asn(OH)″]ALMP) (SMILES CC[C@H](C)[C@@H]1NC(=O)[C@@H]2CCCN2C(=O)[C@H](CCSC)NC(=O)[C@H](CC(C)C)NC(=O)[C@H](C)NC(=O)[C@H](CC(=O)NO)NC(=O)[C@H](CCC(N)=O)NC(=O)CNC(=O)[C@H](Cc2ccc(O)cc2)NC(=O)[C@H](CO)NC1=O, also called peptide 10) [cyclo[ISYGQN(OH)ALMP]]"
readout_number = 32.5

[[record]]
binder = "cyclo(ATSGISYGQ[Asn(OH)]ALMPSGYM) (SMILES CC[C@H](C)[C@@H]1NC(=O)CNC(=O)[C@H](CO)NC(=O)[C@H]([C@@H](C)O)NC(=O)[C@H](C)NC(=O)[C@H](CCSC)NC(=O)[C@H](Cc2ccc(O)cc2)NC(=O)CNC(=O)[C@H](CO)NC(=O)[C@@H]2CCCN2C(=O)[C@H](CCSC)NC(=O)[C@H](CC(C)C)NC(=O)[C@H](C)NC(=O)[C@H](CC(=O)NO)NC(=O)[C@H](CCC(N)=O)NC(=O)CNC(=O)[C@H](Cc2ccc(O)cc2)NC(=O)[C@H](CO)NC1=O, also called peptide 14) [cyclo[…(OH)ALMPSGYM]]"
readout_number = 3.34

